# targetEntity: T1, Cynomolgus PSGL-1(ECD)-hFc1 (cynomolgus macaque)
# T1 construct: also called Cyno PSGL1-Fc; Cyno PSGL-1(ECD)-Fc
# T1 sequence (chain, as listed by the source limits assumed): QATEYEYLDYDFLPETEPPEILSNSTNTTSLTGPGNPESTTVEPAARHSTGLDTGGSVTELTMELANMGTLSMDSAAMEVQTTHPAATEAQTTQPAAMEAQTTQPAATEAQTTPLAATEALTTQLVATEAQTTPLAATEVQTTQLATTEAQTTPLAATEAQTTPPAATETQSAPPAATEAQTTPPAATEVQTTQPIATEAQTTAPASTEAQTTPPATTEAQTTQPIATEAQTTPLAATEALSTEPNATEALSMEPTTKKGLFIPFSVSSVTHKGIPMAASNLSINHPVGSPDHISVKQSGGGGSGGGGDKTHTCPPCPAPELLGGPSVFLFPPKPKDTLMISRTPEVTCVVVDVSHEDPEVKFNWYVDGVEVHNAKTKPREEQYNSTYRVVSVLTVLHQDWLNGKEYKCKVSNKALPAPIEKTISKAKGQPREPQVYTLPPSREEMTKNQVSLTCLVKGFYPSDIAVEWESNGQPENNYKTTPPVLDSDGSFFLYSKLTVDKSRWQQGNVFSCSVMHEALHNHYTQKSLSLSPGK
# assayProcedure: ELISA, 20 nM mAb on plate cyno PSGL-1(ECD)-Fc
quantityMeasured: A450nm (A450 nm)
Number in A450 nm, nothing else.

Reference set (3 entries):
07E07 (antibody, IgG4, V domains shown) VH: QVQLQQSGAEVKKPGASVKVSCKASGYTFTSYYMHWVRQAPGQGLEWMGIINTSSGSTKYAQRFQDRVTVTRDTSTTTVYMELNSLRSEDTAVYYCARGGRAYSGSFDNWGQGTLVTVSS VL: DVVMTQSPLSLPVTLGQPASISCRSSQSLVHRDGNTYFNWFQQRPGQSPRRLIYKVSNRDSGVPDRFSGSGSGTDFTLKISRVEAEDVGVYYCMQATHWPRTFGQGTKVEIK ... 0.38
05A11 (antibody, IgG4, V domains shown) VH: EVKLLESGGGVVQPGRSLRLSCAASGFSFSAYGMHWVRQAPGKGLEWVSSISGSGDGTYYADSVKGRFTISRDNSKNTLYLQMNSLRAEDAAVYYCAKSVKGRGYFFDYWGQGTLVTVSS VL: DIVLTQSPSSLSASVGDRVTITCRASQSISSYLNWYQQKPGKAPKLLIYAASSLQSGVPSRFSGSGSGTDFTLSISNLQPEDFATYYCQQAYKFPRSFGGGTKVEFK ... 0.7
03D01 (antibody, IgG4, V domains shown) VH: EVQLVQSGGGLVQPGGSLRLSCAATGFTVSRNYMTWVREAPGKGLEWVAGIYKSGTTSYIESVKGRFTISRDNSKNTLYLEMSRLRAEDTAVYYCAKSTSTWGQGTQVTVSS VL: DVVMTQSPVSLPVTLGQPASISCRSSRNLLYSNGNTYLNWFHQRPGQSPRRLIYKVSNQDSGVPDRFSGSGSGTDFTLKISRVEAEDVGVYYCMQGTHWPTTFGQGTRLEIK ... 0.71

Recorded result, 05D01 (antibody, V domains shown) VH: QVTLRESGGALVQPGGSLRLSCAASGFPLRSNAMTWVRQAPGKGLEWVSDIRGNGASTYYADSVKGRFTISRDDSNNILFLQMNSLRAEDTAVYYCVGHGSSSYWGQGTLVTVSS VL: DVVMTQSPLSLPVTLGQPASISCRSSQSLVYRDGNIYLNWFQQRPGQSPRRLIYKVSNRDSGVPDRFSGSGSGTDFTLKISRVEAEDVGVYYCMQLTHWPPGFAQGTKLEIK , A450nm: 1.38

Recorded result, 16L15 (antibody, V domains shown, From mouse immunisation; only variable domains given) VH: DVKLVESGGGLVKLGGSLKLSCAASGFTFSSYYMSWVRQTPEKRLEWVATISNGGGSTYYPDSVKDRFTISRDNAKNTLYLQMSSLNSEDTAVYYCAKPLYYSNPWFAYWGQGTLVTVSA VL: DVLLTQTPLSLPVSLGDQASISCRSSQSIVHSNGNTYLEWYLQKPGQSPKLLIYKVSNRFSGVPDRFSGSGSGTDFTLKISRVEAEDLGVYYCFQGSHVPRTFGGGTKLEIK , A450nm: 1.22
